test-summary: CNS penetration following a single intraperitoneal dose
Format: in vivo, Male Long Evans Rats
settings: male, Long Evans, rat, brain and plasma, ip; Table 4; single intraperitoneal dose of 10 mg/kg, n = 3; read-out: Brain/plasma ratio
Counter-ions that a name gives are not always drawn.
Here, each record is paired with measured Kp data.

compound: O=S(=O)(c1cccc2ccccc12)c1n[nH]c2ccc(N3CCNCC3)cc12 [Compound C, dihydrochloride, reference compound]
result-modifier: <
Kp: 0.01

compound: CC(C)Cn1nc(S(=O)(=O)c2cccc3ccccc23)c2cc(N3CCNCC3)ccc21 [Example 1, dihydrochloride]
result-modifier: =
Kp: 0.81

compound: O=S(=O)(c1cccc2ccccc12)c1nn(Cc2ccccc2)c2ccc(N3CCNCC3)cc12 [Example 2, dihydrochloride]
result-modifier: =
Kp: 0.26

###

test-summary: Pharmacokinetics following a single IV bolus
Design: species or system Male Long Evans Rats
settings: male, Long Evans, rat, in vivo; single IV bolus at 2 mg/kg, n = 3
Counter-ions that a name gives are not always drawn.
quantity-measured: AUC(0-inf) (ng·h/mL)

molecule: O=S(=O)(c1cccc2ccccc12)c1nn(Cc2ccccc2)c2ccc(N3CCNCC3)cc12 [Example 2, dihydrochloride]
quantity-measured: AUC(0-inf)
test-value: 843
--
molecule: CC(C)Cn1nc(S(=O)(=O)c2cccc3ccccc23)c2cc(N3CCNCC3)ccc21 [Example 1, dihydrochloride]
quantity-measured: AUC(0-inf)
test-value: 378
--
molecule: O=S(=O)(c1cccc2ccccc12)c1n[nH]c2ccc(N3CCNCC3)cc12 [Compound C, dihydrochloride, reference compound]
quantity-measured: AUC(0-inf)
test-value: 390
